- assay_procedure: AUC (0 to 6 hrs) in rat at 5 mg/kg, po after 24 hrs
- Type: ADME, organism-based
- Parameters: time < 6 hr, dose 5 mg/kg, route oral
- test_parameters: plasma

query_smiles | unit_info | AUC(0-t) at 6 h
C[C@@H](OC[C@@]1(c2ccccc2)CC[C@H](C(N)=O)CN1)c1cc(C(F)(F)F)cc(C(F)(F)F)c1 | ng·h/mL | 2600

====

# Ki per record follows
- assay_target: Substance-P receptor (Homo sapiens, UniProt P25103)
- Sequence (P25103 whole entry): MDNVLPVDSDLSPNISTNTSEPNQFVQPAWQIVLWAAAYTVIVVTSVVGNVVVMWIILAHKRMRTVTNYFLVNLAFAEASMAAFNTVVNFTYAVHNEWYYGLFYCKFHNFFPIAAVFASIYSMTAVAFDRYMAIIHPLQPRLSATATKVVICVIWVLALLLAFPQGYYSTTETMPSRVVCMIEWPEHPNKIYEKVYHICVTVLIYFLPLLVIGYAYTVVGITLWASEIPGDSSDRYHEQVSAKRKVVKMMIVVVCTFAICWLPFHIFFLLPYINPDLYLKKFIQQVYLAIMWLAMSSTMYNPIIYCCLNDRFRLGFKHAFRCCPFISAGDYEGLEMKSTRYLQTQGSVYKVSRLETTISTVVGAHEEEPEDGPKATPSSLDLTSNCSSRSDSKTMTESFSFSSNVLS
- assay_procedure: Displacement of [3H]SAr-Met from human recombinant NK1 receptor expressed in CHO cells

compound | Ki (nM)
FC(F)(F)c1cc(COCC2(c3ccccc3)CCCCN2)cc(C(F)(F)F)c1 (stereo not drawn) | 1
CCNC(=O)[C@@H]1CC[C@@](CO[C@H](C)c2cc(C(F)(F)F)cc(C(F)(F)F)c2)(c2ccccc2)NC1 | 1.13
C[C@@H](OC[C@@]1(c2ccccc2)CC[C@H](NC(N)=O)CN1)c1cc(C(F)(F)F)cc(C(F)(F)F)c1 | 0.69
C[C@@H](OC[C@@]1(c2ccccc2)CC[C@H](Nc2ncccn2)CN1)c1cc(C(F)(F)F)cc(C(F)(F)F)c1 | 0.33
C[C@@H](OC[C@@]1(c2ccccc2)CC[C@@H](C(N)=O)CN1)c1cc(C(F)(F)F)cc(C(F)(F)F)c1 | 0.19
C[C@@H](OC[C@@]1(c2ccccc2)CC[C@H](C(=O)NC2CC2)CN1)c1cc(C(F)(F)F)cc(C(F)(F)F)c1 | 0.34
CC(=O)N[C@@H]1CC[C@@](CO[C@H](C)c2cc(C(F)(F)F)cc(C(F)(F)F)c2)(c2ccccc2)NC1 | 0.35
C[C@@H](OC[C@@]1(c2ccccc2)CCCCN1)c1cc(C(F)(F)F)cc(C(F)(F)F)c1 | 0.3

====

- assay_procedure: AUC (0 to 6 hrs) in rat at 10 mg/kg, po
- Assay type: ADME, organism-based
- Design: time < 6 hr, dose 10 mg/kg, route oral
- test_parameters: plasma
observable: AUC(0-t) at 6 h

query_smiles | observable | measured_value
C[C@@H](OC[C@@]1(c2ccccc2)CC[C@H](N2CCCC2=O)CN1)c1cc(C(F)(F)F)cc(C(F)(F)F)c1 | AUC(0-t) at 6 h | 13800 ng·h/mL
CC(=O)N[C@H]1CC[C@@](CO[C@H](C)c2cc(C(F)(F)F)cc(C(F)(F)F)c2)(c2ccccc2)NC1 | AUC(0-t) at 6 h | 10000 ng·h/mL
C[C@@H](OC[C@@]1(c2ccccc2)CC[C@H](NS(C)(=O)=O)CN1)c1cc(C(F)(F)F)cc(C(F)(F)F)c1 | AUC(0-t) at 6 h | 5940 ng·h/mL
CC(=O)N[C@@H]1CC[C@@](CO[C@H](C)c2cc(C(F)(F)F)cc(C(F)(F)F)c2)(c2ccccc2)NC1 | AUC(0-t) at 6 h | 795 ng·h/mL
CCC(=O)N[C@H]1CC[C@@](CO[C@H](C)c2cc(C(F)(F)F)cc(C(F)(F)F)c2)(c2ccccc2)NC1 | AUC(0-t) at 6 h | 1950 ng·h/mL
C[C@@H](OC[C@@]1(c2ccccc2)CC[C@H](NC(N)=O)CN1)c1cc(C(F)(F)F)cc(C(F)(F)F)c1 | AUC(0-t) at 6 h | 6040 ng·h/mL
C[C@@H](OC[C@@]1(c2ccccc2)CC[C@H](NC(=O)C2CC2)CN1)c1cc(C(F)(F)F)cc(C(F)(F)F)c1 | AUC(0-t) at 6 h | 5260 ng·h/mL
